Assay: in vivo
Conditions: male, CD1, mouse
endpoint name: half-life
Field note: include the unit after the figure.

half-life reading for COc1cccc(CNc2ccc(S(=O)(=O)Nc3nc4ccccc4s3)cc2)c1O [Compound 35] : 2.9 h

###

The following molecules are listed with their measured solubility values.
Assay: PBS buffer (pH 7.4) solubility
Type: physicochemical
Details: PBS buffer, pH 7.4, aqueous buffer

- molecule smiles: "COc1cccc(CNc2ccc(S(=O)(=O)Nc3nc4ccccc4o3)cc2)c1O"
  test result: "> 60 µg/mL"

The record that follows has no solubility shown yet.
The reported value for COc1cccc(CNc2ccc(S(=O)(=O)Nc3nc4ccccc4s3)cc2)c1O in terms of solubility is < 5 µg/mL

###

Test: In Vivo PK (Mouse)
Details: male, CD1, mouse, in vivo, po, 30 mg/kg
endpoint name: half-life (h)
# number only, unit h dropped from output

# compound COc1cccc(CNc2ccc(S(=O)(=O)Nc3nc4ccccc4s3)cc2)c1O [Compound 35] ; its half-life = 2.9

Data provenance: patent US10752581B2
